Target: T1, human TSH receptor (full length), coated on tubes (human, UniProt P16473 22-764)
T1 construct: TSHR coated tubes as described in WO2004/050708A2; The receptor is full length and held on plastic tubes through a mouse MAb to the TSHR; also called thyroid stimulating hormone receptor
Experiment: inhibition of 125I-K1-70 Fab (competitor) binding to TSHR coated tubes; 0.001 µg/mL in assay buffer

binder	readout.unit	Inhibition of binding (%)
K1-70 Fab (Fab, V domains shown) VH: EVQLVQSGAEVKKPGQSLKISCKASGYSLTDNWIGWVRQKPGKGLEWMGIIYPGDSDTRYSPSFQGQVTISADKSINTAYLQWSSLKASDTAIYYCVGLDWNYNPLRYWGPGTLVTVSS VL: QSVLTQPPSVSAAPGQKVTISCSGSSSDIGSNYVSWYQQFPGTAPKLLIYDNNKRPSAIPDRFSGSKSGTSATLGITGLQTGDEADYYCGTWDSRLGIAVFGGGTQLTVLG	%	11.9
